experiment: Apparent hydrophobicity, log D of the compound in Octanol-buffer; type: physicochemical; conditions: octanol/buffer
Output schema: class label derived from logD. Mapping: Low (below 2), Medium (2 to below 3), High (3 or more)

# MOLECULE, LABEL
measured = [
    ("CCN(CC)C(=O)SCc1ccc(Cl)cc1", "High"),
    ("CCNc1nc(Cl)nc(NC(C)C)n1", "Medium"),
    ("CC(C)Cc1ccc(C(C)C(=O)O)cc1 (stereo not given)", "Low"),
    ("CC(C)(C)N(NC(=O)c1ccc(Cl)cc1)C(=O)c1ccccc1 [HALOFENOZIDE]", "High"),
    ("CC(C(=O)O)c1cccc(C(=O)c2ccccc2)c1 (stereo not given)", "Low"),
    ("C[C@]12C[C@H](O)[C@H]3[C@@H](CCC4=CC(=O)CC[C@@]43C)[C@@H]1CC[C@@H]2C(=O)CO", "Low"),
    ("C[C@]12CCC(=O)C=C1CC[C@@H]1[C@@H]2[C@@H](O)C[C@@]2(C)[C@H]1CC[C@]2(O)C(=O)CO [HYDROCORTISONE]", "Low"),
    ("COP(=S)(OC)Oc1ccc([N+](=O)[O-])c(C)c1", "High"),
]

Query :: Lab log: CCOP(=S)(NC(C)CC)Oc1cc(C)ccc1[N+](=O)[O-] (stereo not given) — assign logD category
Result :: High

Query :: Lab log: `Clc1cccc(Cl)c1N=C1NCCN1` — assign logD category
Result :: Low

Query :: Lab log: CCC(C)c1ccccc1OC(=O)NC (stereo not given) — assign logD category
Result :: Medium

Query :: Lab log: CCOP(=S)(OCC)Oc1cc(C)nc(C(C)C)n1 [DIMPYLATE] — assign logD category
Result :: High

Query :: Lab log: CC(CCc1ccccc1)NCC(O)c1ccc(O)c(C(N)=O)c1 (stereo not given) — assign logD category
Result :: Low

Query :: Lab log: `CN1C(C(=O)Nc2ccccn2)=C(O)c2ccccc2S1(=O)=O` — assign logD category
Result :: Low

Query :: Lab log: CC(=O)Nc1ccc(OCC(O)CNC(C)C)cc1 (stereo not given) — assign logD category
Result :: Low

Query :: Lab log: `COc1nn(CSP(=S)(OC)OC)c(=O)s1` — assign logD category
Result :: Medium

Query :: Lab log: `O=C1NC(=O)C(c2ccccc2)(c2ccccc2)N1` — assign logD category
Result :: Medium

Query :: Lab log: CC(C)NCC(O)COc1cccc2[nH]ccc12 (stereo not given) — assign logD category
Result :: Low

Query :: Lab log: `COc1ccc([C@@H]2Sc3ccccc3N(CCN(C)C)C(=O)[C@@H]2OC(C)=O)cc1` — assign logD category
Result :: Medium

* * *

molecular target: Nicotinic acetylcholine receptor alpha8 subunit (Periplaneta americana); assay: Neuroblocking activity in Periplaneta americana (American cockroach) nicotinic acetylcholine receptor in abdominal fifth and sixth ganglia nerve assessed as neuroblocking concentration by neurophysiological test
Output schema: class label derived from log(1/BC). Mapping: I = under 5, II = from 5 up to 6, III = 6 and over

# COMPOUND, LABEL
rows = [
    ("O=[N+]([O-])/N=c1\\[nH]ccn1Cc1cnc(Cl)s1", "I"),
    ("O=[N+]([O-])/N=C1\\NCCCN1Cc1ccc(Cl)nc1", "II"),
    ("O=[N+]([O-])/N=c1\\sccn1Cc1ccc(Cl)nc1", "II"),
    ("O=[N+]([O-])/C=C1\\SCCN1Cc1ccc(Cl)nc1", "III"),
    ("O=[N+]([O-])/C=C1\\CCCN1Cc1ccc(Cl)nc1", "III"),
]

Query :: Lab log: `O=[N+]([O-])/C=C1\CCCN1Cc1cnc(Cl)s1` — assign log(1/BC) category
Result :: III

Query :: Lab log: `CN1CCN(Cc2ccc(Cl)nc2)/C1=N/[N+](=O)[O-]` — assign log(1/BC) category
Result :: I

Query :: Lab log: O=[N+]([O-])Nc1nccn1Cc1ccc(Cl)nc1 [DEHYDROIMIDACLOPRID] — assign log(1/BC) category
Result :: I
